test system: HCT-116; assay: NCI tumour cell line growth inhibition, 48 h
The source made the active and inactive calls. Rule as the data show it: active = GI50 up to about 1.1 µM and inactive = higher.
Permitted responses: active, inactive

What classification did CN1C(=O)c2cccc3c([N+](=O)[O-])ccc(c23)C1=O end up with in this test? inactive

What classification did Oc1cc(Br)cc2cc(Cl)cnc12 end up with in this test? inactive

What classification did O=c1cc(-c2ccccc2)[nH]c2ccc(N3CCCC3)cc12 end up with in this test? active

What classification did CC(=O)O[C@H]1C[C@H]2[C@@H]([C@H](OC(C)=O)C[C@@H]3CC4(CC[C@@]32C)OOC2(CCCCC2)OO4)[C@@H]2CC[C@H]([C@H](C)CCC(N)=O)[C@@]12C end up with in this test? inactive

What classification did CCCCNC1CCC2(SCCS2)c2[nH]c3ccccc3c21 (stereo not given) end up with in this test? inactive
